# procedure_details: Thermodynamic solubility in 13 solvents at RT and 50° C. by UPLC
# Assay type: physicochemical
# cond: water, 50 °C, water, thermodynamic from solid, Water, 50° C.; read-out: Solubility at 50° C.(mg/mL)
quantity_measured: solubility
Report field: quantity (unit follows the number).

Task: Which value of solubility has been reported for Cc1ccc(NC(=O)N2CC[C@@H](CC(F)(F)F)C2)cc1-c1cc(N[C@H](C)CO)nc(N2CCOCC2)c1.Cl [Compound 2] in the records?
Result: 6.73 mg/mL

###

# procedure_details: Thermodynamic solubility in 13 solvents at RT and 50° C. by UPLC
# Type: physicochemical
# cond: ACN, 50 °C, organic solvent or mixture, thermodynamic from solid, ACN, 50° C.; read-out: Solubility at 50° C.(mg/mL)
quantity_measured: solubility

Task: Form field: reported solubility of Cc1ccc(NC(=O)N2CC[C@@H](CC(F)(F)F)C2)cc1-c1cc(N[C@H](C)CO)nc(N2CCOCC2)c1.Cl [Compound 2]
Result: 0.92 mg/mL
